Data provenance is patent US4777182A.

Each record here notes measured pIC50.
- Target System: Plasmin (Homo sapiens, UniProt P00747)
- Sequence (P00747 97-580 limits assumed, species assumed): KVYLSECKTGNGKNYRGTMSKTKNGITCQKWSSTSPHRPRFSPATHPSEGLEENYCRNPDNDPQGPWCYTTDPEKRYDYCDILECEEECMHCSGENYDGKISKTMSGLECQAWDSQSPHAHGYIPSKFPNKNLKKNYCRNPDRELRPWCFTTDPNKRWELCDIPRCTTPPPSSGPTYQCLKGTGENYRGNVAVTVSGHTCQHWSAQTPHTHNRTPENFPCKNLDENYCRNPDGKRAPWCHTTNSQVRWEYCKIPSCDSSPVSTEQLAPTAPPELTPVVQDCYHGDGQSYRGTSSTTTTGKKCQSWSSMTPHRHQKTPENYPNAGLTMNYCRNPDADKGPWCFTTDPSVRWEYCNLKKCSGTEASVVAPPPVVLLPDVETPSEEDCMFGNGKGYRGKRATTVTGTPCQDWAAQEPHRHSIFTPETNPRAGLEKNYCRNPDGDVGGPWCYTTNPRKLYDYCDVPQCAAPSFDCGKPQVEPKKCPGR
- Sequence (P00747 581-810 limits assumed, species assumed): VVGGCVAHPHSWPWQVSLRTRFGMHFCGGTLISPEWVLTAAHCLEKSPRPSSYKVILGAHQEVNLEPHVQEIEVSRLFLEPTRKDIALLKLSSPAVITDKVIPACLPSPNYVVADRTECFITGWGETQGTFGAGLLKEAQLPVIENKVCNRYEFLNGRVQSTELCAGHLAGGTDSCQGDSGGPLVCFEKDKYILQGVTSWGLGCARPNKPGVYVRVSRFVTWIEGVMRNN
- Assay Details: Anti-plasmin activity (inhibition of TAME hydrolysis)
- Type: biochemical
- Assay Context: TAME hydrolysis; read-out: ID50, Plasmin
pIC50: −log10 of the molar value.
Metric: pIC50

compound="N=C(N)c1ccc2cc(OC(=O)c3ccc(NC4=NC5CCCCC5N4)cc3)ccc2c1 (centres unmarked)" metric=pIC50 result=5.52
compound=CC(=O)NCCNC(=N)Nc1ccc(C(=O)Oc2ccc3cc(C(=N)N)ccc3c2)cc1 metric=pIC50 result=6.05
compound=CNC(=N)Nc1ccc(C(=O)Oc2ccc3cc(C(=N)N)ccc3c2)cc1 metric=pIC50 result=5.52
compound="CC1CNC(Nc2ccc(C(=O)Oc3ccc4cc(C(=N)N)ccc4c3)cc2)=N1 (centres unmarked)" metric=pIC50 result=6.00
compound=CCCCNC(=N)Nc1ccc(C(=O)Oc2ccc3cc(C(=N)N)ccc3c2)cc1 metric=pIC50 result=6.30
compound=CN1CCNC1=Nc1ccc(C(=O)Oc2ccc3cc(C(=N)N)ccc3c2)cc1 metric=pIC50 result=6.00
compound=N=C(N)c1ccc2cc(OC(=O)c3ccc(NC4=NCCCN4)cc3)ccc2c1 metric=pIC50 result=6.00
compound=CN=C(NC)Nc1ccc(C(=O)Oc2ccc3cc(C(=N)N)ccc3c2)cc1 metric=pIC50 result=6.10

----------
- System: complement mediated hemolysis
- Assay Details: Inhibition of complement mediated hemolysis
- Assay type: cell-based
- Assay Context: 1 × 10^-7
Metric: Inhibition of complement mediated hemolysis (%)

compound="N=C(N)c1ccc2cc(OC(=O)c3ccc(NC4=NC5CCCCC5N4)cc3)ccc2c1 (centres unmarked)" result=75
compound=CCNC(=NC)Nc1ccc(C(=O)Oc2ccc3cc(C(=N)N)ccc3c2)cc1 result=0
compound=N=C(NCCO)Nc1ccc(C(=O)Oc2ccc3cc(C(=N)N)ccc3c2)cc1 result=6
compound=N=C(NCCOCc1ccccc1)Nc1ccc(C(=O)Oc2ccc3cc(C(=N)N)ccc3c2)cc1 result=46
compound=CNC(=N)Nc1ccc(C(=O)Oc2ccc3cc(C(=N)N)ccc3c2)cc1 result=34
compound=N=C(N)c1ccc2cc(OC(=O)c3ccc(Nc4ncc[nH]4)cc3)ccc2c1 result=4
compound=N=C(N)c1ccc2cc(OC(=O)c3ccc(NC4=NCCCN4)cc3)ccc2c1 result=5
compound=CCN=C(NCC)Nc1ccc(C(=O)Oc2ccc3cc(C(=N)N)ccc3c2)cc1 result=0

----------
- Target System: C1s (Homo sapiens, UniProt P09871)
- Sequence (P09871 16-437 limits assumed): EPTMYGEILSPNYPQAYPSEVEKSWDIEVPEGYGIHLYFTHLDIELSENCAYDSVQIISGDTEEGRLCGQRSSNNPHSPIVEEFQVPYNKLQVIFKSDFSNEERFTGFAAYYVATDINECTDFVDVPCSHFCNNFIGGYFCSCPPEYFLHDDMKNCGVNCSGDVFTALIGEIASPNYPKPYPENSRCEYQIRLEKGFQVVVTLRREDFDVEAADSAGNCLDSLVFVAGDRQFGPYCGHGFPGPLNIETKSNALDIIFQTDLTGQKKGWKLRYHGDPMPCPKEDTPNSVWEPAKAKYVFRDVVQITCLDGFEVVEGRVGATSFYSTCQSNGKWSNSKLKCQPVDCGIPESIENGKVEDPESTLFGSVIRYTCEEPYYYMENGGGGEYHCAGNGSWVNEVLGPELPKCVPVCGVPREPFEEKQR
- Sequence (P09871 438-688 limits assumed): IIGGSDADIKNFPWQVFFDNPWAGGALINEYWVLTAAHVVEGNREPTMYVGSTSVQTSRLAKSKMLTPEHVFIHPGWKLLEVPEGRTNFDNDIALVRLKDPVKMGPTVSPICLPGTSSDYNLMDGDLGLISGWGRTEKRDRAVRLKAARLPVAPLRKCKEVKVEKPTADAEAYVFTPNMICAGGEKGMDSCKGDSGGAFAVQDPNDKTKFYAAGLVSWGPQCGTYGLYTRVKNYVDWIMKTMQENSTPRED
- Assay Details: Anti-C1s activity (inhibition of ATEE hydrolysis)
- Assay type: biochemical
- Assay Context: read-out: ID50, C1s
pIC50: −log10 of the molar value.
Each record here notes measured pIC50.
Metric: pIC50

compound="CN1CCNC1=Nc1ccc(C(=O)Oc2ccc3cc(C(=N)N)ccc3c2)cc1 [compound 3]" metric=pIC50 result=6.52
compound="N=C(NCCOCc1ccccc1)Nc1ccc(C(=O)Oc2ccc3cc(C(=N)N)ccc3c2)cc1 [compound 18]" metric=pIC50 result=5.70
compound="CCNC(=NC)Nc1ccc(C(=O)Oc2ccc3cc(C(=N)N)ccc3c2)cc1 [compound 11]" metric=pIC50 result=6.70
compound="CC1CNC(Nc2ccc(C(=O)Oc3ccc4cc(C(=N)N)ccc4c3)cc2)=N1 (centres unmarked) [compound 4]" metric=pIC50 result=6.40
compound="CN(C)C(=N)Nc1ccc(C(=O)Oc2ccc3cc(C(=N)N)ccc3c2)cc1 [compound 9]" metric=pIC50 result=6.40
compound="N=C(N)c1ccc2cc(OC(=O)c3ccc(NC4=NCCN4)cc3)ccc2c1 [Compound No. 2]" metric=pIC50 result=6.15
compound="CN=C(NC)Nc1ccc(C(=O)Oc2ccc3cc(C(=N)N)ccc3c2)cc1 [Compound No. 1]" metric=pIC50 result=6.40
compound="CCN=C(NCC)Nc1ccc(C(=O)Oc2ccc3cc(C(=N)N)ccc3c2)cc1 [compound 12]" metric=pIC50 result=7.10
compound="N=C(N)c1ccc2cc(OC(=O)c3ccc(NC4=NCCCN4)cc3)ccc2c1 [compound 5]" metric=pIC50 result=6.52
compound="CC(=O)NCCNC(=N)Nc1ccc(C(=O)Oc2ccc3cc(C(=N)N)ccc3c2)cc1 [compound 16]" metric=pIC50 result=5.52
compound="CCCCNC(=N)Nc1ccc(C(=O)Oc2ccc3cc(C(=N)N)ccc3c2)cc1 [compound 13]" metric=pIC50 result=6.30
compound="CCNC(=N)Nc1ccc(C(=O)Oc2ccc3cc(C(=N)N)ccc3c2)cc1 [compound 10]" metric=pIC50 result=6.10
compound="N=C(N)c1ccc2cc(OC(=O)c3ccc(Nc4ncc[nH]4)cc3)ccc2c1 [compound 7]" metric=pIC50 result=6.52
compound="N=C(NCCO)Nc1ccc(C(=O)Oc2ccc3cc(C(=N)N)ccc3c2)cc1 [compound 15]" metric=pIC50 result=6.05
